# system-under-test: monkey IGF-1R on COS-7 cells (monkey (African green monkey))
# run-description: cell-based or functional assay
Below, each entry is listed alongside its reported ΔMFI (monkey IGF-1R internalization).
# unit: MFI | format: bare number

Below, each entry is followed by its recorded ΔMFI (monkey IGF-1R internalization) result.
[
  {
    "binder": "m214F8 (murine 214F8, hybridoma CNCM I-4775) (antibody, V domains shown) VH: QVQLQQSGSELVKPGASVKLSCKASGYTFTSYYIHWVKQRPGQGLEWIGWIWPGDGSTKYNERFKGKTTLTADKSSSTAYMFLSSLTSEDSAVYFCASPMITPNYAMDYWGQGASVTVSS VL: DIQMTQTTSSLSASLGDRVTFSCRASQDISKYLNWYQQQPDGTIKLLIYYTSRLHSGVPSRFSGRGSGTDYSLTITNLEQEDIATYFCQQGSALPYTFGGGTKLEIK",
    "unit-abbrev": "MFI",
    "ΔMFI (monkey IGF-1R internalization)": 76
  },
  {
    "binder": "c208F2 (antibody, human IgG1, kappa, V domains shown, also called chimeric 208F2; chimeric form of the 208F2 second IGF-1R antibody) VH: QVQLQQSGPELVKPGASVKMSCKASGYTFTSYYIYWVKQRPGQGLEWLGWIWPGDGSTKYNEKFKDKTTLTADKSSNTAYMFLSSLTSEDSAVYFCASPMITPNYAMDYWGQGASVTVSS VL: DIQMTQTTSSLSASLGDRVTISCRASQDISKYLNWYQQQPDGTIKLLIYYTSRLHSGVPSRFSGRGSGTDYSLTISNVEQEDIATYFCQQGSTLPYTFGGGTKLEIKR",
    "unit-abbrev": "MFI",
    "ΔMFI (monkey IGF-1R internalization)": 52
  },
  {
    "binder": "m213B10 (murine 213B10, hybridoma CNCM I-4774) (antibody, V domains shown) VH: QVQLQQSGSELVKPGASVKMSCKASGYTFTSYYIHWVKQRPGQGLEWIGWIWPGDGSTKYNERFKGKTTLTADKSSSTAYMFLSSLTSEDSAVYFCASPMITPNYAMDYWGQGASVTVSS VL: DIQMTQTTSSLSASLGDRVTISCRASQDISKYLNWYQQQPDGTIKLLIYYTSRLHSGVPSRFSGRGSGTDYSLTITNLEQEDIATYFCQQGSALPYTFGGGTKLEIK",
    "unit-abbrev": "MFI",
    "ΔMFI (monkey IGF-1R internalization)": 84
  }
]

Request: Please look up its ΔMFI (monkey IGF-1R internalization): m208F2 (murine 208F2, hybridoma CNCM I-4757) (antibody, V domains shown) VH: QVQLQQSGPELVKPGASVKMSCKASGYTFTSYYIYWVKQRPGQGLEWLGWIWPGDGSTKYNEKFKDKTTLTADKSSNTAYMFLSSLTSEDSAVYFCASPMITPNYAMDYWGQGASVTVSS VL: DIQMTQTTSSLSASLGDRVTISCRASQDISKYLNWYQQQPDGTIKLLIYYTSRLHSGVPSRFSGRGSGTDYSLTISNVEQEDIATYFCQQGSTLPYTFGGGTKLEIK
Response: 53

Request: Same lookup for c212A11 (antibody, human IgG1, kappa, V domains shown, also called chimeric 212A11) VH: QVQLQQSGPELVKPGASVKMSCKASGYTFTSYYIHWVKQRPGQGLEWIGWIWPGDGSTKYNEKFKGKTTLTADKSSSTAYMFLSSLTSEDSAVYFCASPMITPNYAMDYWGQGASVTVSS VL: DIQMTQTTSSLSASLGDRVTISCRASQDINKYLNWYQQQPDGTVKLLIYYTSRLHSGVPSRFSGRGSGTDYSLTISNLEQEDIATYFCQQGSTLPYTFGGGTKLEIKR , please.
Response: 98

Request: Same lookup for c219D6 (antibody, human IgG1, kappa, V domains shown, also called chimeric 219D6) VH: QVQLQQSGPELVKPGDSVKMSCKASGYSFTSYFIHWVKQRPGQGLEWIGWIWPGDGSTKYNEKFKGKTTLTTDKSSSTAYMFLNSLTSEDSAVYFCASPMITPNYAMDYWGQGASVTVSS VL: DIQMTQTTSSLSASLGDRVTISCRASQDISKYLNWYQQQPDGTVKLLIYYTSRLHSGVPSRFSGRGSGTDYSLTISNLEQEDIATYFCQQGSTLPYTFGGGTKLEIKR , please.
Response: 102
